Cited source for all entries: PubChem BioAssay (NCI)

- Tested on: K-562 leukemia
- Assay: NCI tumour cell line growth inhibition, 48 h; in the data active = GI50 below about 0.43 µM; inactive = the rest
Lab note: assign the record to one of Yes = active, No = inactive

Query: GET /call?item= O=C1CN=C(c2ccc[nH]2)c2cc(Cl)ccc2N1 returns the recorded outcome of this test.
Reply: No

Query: GET /call?item= Cc1ccc(/C(=N/NS(=O)(=O)c2cc(C)c(Cl)cc2Cl)Sc2cc(Cl)c(C)cc2S(N)(=O)=O)cc1 returns the recorded outcome of this test.
Reply: No

Query: GET /call?item= CCCCCCCCCCCCCCCCn1cc[n+](C)c1 returns the recorded outcome of this test.
Reply: Yes

Query: GET /call?item= Clc1ccc(-c2cnc3c(-c4ccnc(N5CCNCC5)c4)cnn3c2)cc1 returns the recorded outcome of this test.
Reply: No

Query: GET /call?item= O=C1OC2(c3ccc(O)cc3Oc3cc(O)ccc32)c2cccc3cccc1c23 returns the recorded outcome of this test.
Reply: No

Query: GET /call?item= N#Cc1c(N)nc2c(c1-c1ccc(Cl)cc1)COc1ccc(F)cc1-2 returns the recorded outcome of this test.
Reply: No

Query: GET /call?item= ClCc1ccccc1Cn1cnc2nc(Cl)nc(Cl)c21 returns the recorded outcome of this test.
Reply: Yes

Query: GET /call?item= c1cc(OCCN2CCCC2)ccc1CNc1ccc2nc(CCC3CCCCC3)[nH]c2c1 returns the recorded outcome of this test.
Reply: Yes

Query: GET /call?item= CC(C)[C@@]12C[C@@H](OC(=O)C3CO3)[C@@](C)(O1)[C@@H]1CC[C@@H](C)[C@H]1[C@@H]2OC(=O)/C=C/c1ccccc1 (stereo not given in full) returns the recorded outcome of this test.
Reply: No

Query: GET /call?item= CCCN(CCC)c1ccc(/C=N/NC(=O)c2cccnc2)c(C)c1 returns the recorded outcome of this test.
Reply: No
